- Read-out: UDP glucuronosyltransferase (UGT1A1), UGT1A1 (gene 54658)
- method-description: LTEA_HepaRG_UGT1A1: Life Technologies and Expression Analysis (LTEA) Assay for UDP glucuronosyltransferase (UGT1A1) using HepaRG (AID 2283538)
- conditions-used: mRNA level, 48 h; actives raise or lower the signal
Calls of active or inactive are those of the source. Rule for the calls: active = hit-call score of the fitted dose curve at least 0.9, where 1 is the maximum; inactive = score below 0.9.
Choose the fitting class; nothing outside true (1) (active), false (0) (inactive) is accepted.

Solved entries (count: 6):
- compound: "Nc1cc(Cl)cc(C(=O)O)c1Cl"
  category: "false (0)"
- compound: "C1=Cc2cccc3cccc1c23"
  category: "false (0)"
- compound: "CCCCCCCCCCCCCN1CC(C)OC(C)C1 (configuration not stated)"
  category: "false (0)"
- compound: "Oc1ccccc1Cl"
  category: "false (0)"
- compound: "[As]#[In]"
  category: "false (0)"
- compound: "N#CC(Br)(Br)C(N)=O"
  category: "false (0)"

Next up:
Prompt: Answer briefly: the call reported for CC(C)(C)C(O)(CCc1ccc(Cl)cc1)Cn1cncn1 (configuration not stated) in this assay.
Completion: true (1)

* * *

- Read-out: catalase (CAT), CAT (gene 847)
- method-description: LTEA_HepaRG_CAT: Life Technologies and Expression Analysis (LTEA) Assay for catalase (CAT) using HepaRG (AID 2283452)
- conditions-used: mRNA level, 48 h; actives raise or lower the signal
Active and inactive are the calls of the source. How the source made its calls: active means hit-call score of the fitted dose curve at least 0.9, where 1 is the maximum; inactive means score below 0.9.
Would you mind answering with one of these outcomes? active, inactive

Would you please look over these solved cases?
- compound: "CC(O)CCO (stereo not drawn)"
  category: "inactive"
- compound: "OCCCBr"
  category: "inactive"
- compound: "[As]#[In]"
  category: "inactive"
- compound: "CS(=O)(=O)NC(=O)c1cc(Oc2ccc(C(F)(F)F)cc2Cl)ccc1[N+](=O)[O-]"
  category: "inactive"
- compound: "O=C(O)C1C2CCC(O2)C1C(=O)O (stereo not drawn)"
  category: "inactive"
- compound: "Clc1ccc(C(c2ccc(Cl)cc2)C(Cl)Cl)cc1"
  category: "inactive"
- compound: "Nc1ccc([N+](=O)[O-])cc1"
  category: "inactive"
- compound: "Nc1ccc(N=Nc2ccccc2)cc1"
  category: "active"
- compound: "Nc1cc(Cl)cc(C(=O)O)c1Cl"
  category: "inactive"
- compound: "c1ccc(C2CO2)cc1 (stereo not drawn)"
  category: "inactive"

Prompt: Dear all, I need the recorded test outcome for "O=C(Oc1ccc(Br)cc1)N1CCN2CCC1CC2" , thank you.
Completion: inactive

* * *

- Read-out: CYP2C8 (gene 1558)
- method-description: LTEA_HepaRG_CYP2C8: Life Technologies and Expression Analysis (LTEA) Assay for CYP2C8 using HepaRG (AID 2283483)
- conditions-used: mRNA level, 48 h; actives raise or lower the signal
Active and inactive are the calls of the source. Rule for the calls: active = hit-call score of the fitted dose curve at least 0.9, where 1 is the maximum; inactive = score below 0.9.
value-kind: AC50

Worked cases, answers included:
- molecule: "Cc1cccc(N)c1N"
  AC50: "50 µM (active)"
- molecule: "O=C(O)C1C2CCC(O2)C1C(=O)O (configuration not stated)"
  AC50: "58.9 µM (active)"
- molecule: "CCN(CC)CCO"
  AC50: "inactive"
- molecule: "c1ccc(C2CO2)cc1 (configuration not stated)"
  AC50: "inactive"
- molecule: "Cn1cc(-c2ccccc2)c(=O)c(-c2cccc(C(F)(F)F)c2)c1"
  AC50: "3.59 µM (active)"
- molecule: "O=[N+]([O-])C(Br)(CO)CO"
  AC50: "inactive"
- molecule: "Nc1ccc(Oc2ccc(N)cc2)cc1"
  AC50: "inactive"
- molecule: "Cc1cc(N=Nc2ccccc2C)ccc1N"
  AC50: "5.98 µM (active)"

Prompt: Give the measured AC50 of CCC(C)c1ccc(O)cc1 (configuration not stated) .
Completion: inactive

Prompt: Which AC50 is listed for "CN(C)c1ccccc1" ?
Completion: inactive

Prompt: Bench note: what AC50 did "[As]#[In]" show?
Completion: inactive

Prompt: Which AC50 is reported for this molecule? "Cc1ccc([N+](=O)[O-])cc1"
Completion: inactive

Prompt: Which AC50 value is on record for "CC(C)(OOC(C)(C)c1ccccc1)c1ccccc1" ?
Completion: 25.4 µM (active)

Prompt: What value of AC50 has been reported for the following molecule? "CN(C)c1ccc(C(=O)c2ccc(N(C)C)cc2)cc1"
Completion: inactive

Prompt: Reported AC50, molecule "Clc1ccccc1Cl" : ____
Completion: inactive

Prompt: AC50 for "CCCSC(=O)N(CCC)CCC" ?
Completion: inactive

Prompt: May I ask what AC50 has been recorded for "CCN(CC)N=O" ?
Completion: inactive
